Please respond with reported growth at 10 µM for every item in the list.
- System: SW-620
- experiment summary: Growth inhibition of human SW-620 cells assessed as cell growth at 10 uM incubated for 48 hrs by sulforhodamine B assay relative to control
- Format: functional
- experimental context: read-out: Activity
# number only, unit % dropped from output

Entry COc1cccc(NC(=O)c2sc3nc4c(cc3c2N)CN(Cc2ccccc2)CC4)c1 has what growth at 10 µM?
30

Then what about the compound Cc1cc(C)cc(S(=O)(=O)n2ccc(-c3ccc4c(c3)CCC(C)(C)O4)n2)c1 ?
88.3

Then what about the compound Cc1cccc(NC(=O)c2sc3nc4c(cc3c2N)CN(Cc2ccccc2)CC4)c1 ?
96.8

Then what about the compound CC1(C)CCc2cc(-c3ccn(S(=O)(=O)c4ccc(Cl)cc4Cl)n3)ccc2O1 ?
91.9

Then what about the compound COc1ccc(S(=O)(=O)n2ccc(-c3ccc(OC(C)C)cc3)n2)cc1 ?
86.3

Then what about the compound CN1CCc2nc3sc(C(N)=O)c(N)c3c(-c3cccs3)c2C1 ?
7

Then what about the compound Cc1ccc(S(=O)(=O)n2ccc(-c3ccc(OCCCF)cc3)n2)cc1 ?
103

Then what about the compound CCc1cccc(C)c1NC(=O)c1sc2nc3c(cc2c1N)C(=O)CCC3 ?
23

Then what about the compound CC(=O)c1ccc2c(N)c(C(=O)Nc3ccccc3)sc2n1 ?
99.4

Then what about the compound CCc1ccccc1NC(=O)c1sc2nc3c(cc2c1N)C(=O)CCC3 ?
24

Then what about the compound Cc1cccc(NC(=O)c2sc3nc4c(cc3c2N)C(=O)CCC4)c1 ?
21

Then what about the compound Nc1c(C(=O)N(c2ccccc2)c2ccccc2)sc2nc3c(cc12)C(=O)CCC3 ?
89.3

Then what about the compound CC1(C)CCc2cc(-c3ccn(S(=O)(=O)c4ccccc4)n3)ccc2O1 ?
71

Then what about the compound CC(=O)Nc1ccc(S(=O)(=O)n2ccc(-c3ccc4c(c3)CCC(C)(C)O4)n2)cc1 ?
82.5

Then what about the compound O=S(=O)(c1ccccc1)n1ccc(-c2ccc3c(c2)CCO3)n1 ?
93.7

Then what about the compound O=S(=O)(c1ccc(Br)cc1)n1ccc(-c2ccc(OCCCF)cc2)n1 ?
107

Then what about the compound CC1(C)CCc2cc(-c3ccn(S(=O)(=O)c4ccc(C(F)(F)F)cc4)n3)ccc2O1 ?
90.2

Then what about the compound Nc1c(C(=O)Nc2ccccc2)sc2nc3c(cc12)CN(Cc1ccccc1)CC3 ?
63

Then what about the compound COc1ccc(-c2ccn(S(=O)(=O)c3ccc(OC)cc3)n2)cc1 ?
82.1

Then what about the compound COc1ccc(-c2ccn(S(=O)(=O)c3ccc(C)cc3)n2)cc1 ?
90.2

Then what about the compound COc1ccc(S(=O)(=O)n2ccc(-c3ccc4c(c3)CCC(C)(C)O4)n2)cc1 ?
90.3

Then what about the compound CC(=O)c1cccc(NC(=O)c2sc3nc4c(cc3c2N)C(=O)CCC4)c1 ?
98.4

Then what about the compound CC(C)N1CCc2nc3sc(C(=O)Nc4ccccc4)c(N)c3cc2C1 ?
96.4

Then what about the compound Cc1cc(C)c(NC(=O)c2sc3nc4c(cc3c2N)CN(Cc2ccccc2)CC4)c(C)c1 ?
13

Then what about the compound COc1ccc(S(=O)(=O)n2ccc(-c3ccc4c(c3)CCC(C)(C)O4)n2)cc1OC ?
79.9

Then what about the compound CCOc1ccc(-c2cc(N)n(S(=O)(=O)c3ccc(OC)cc3)n2)cc1 ?
110

Then what about the compound CC1(C)CCc2cc(-c3ccn(S(=O)(=O)c4ccc(C(C)(C)C)cc4)n3)ccc2O1 ?
89.7

Then what about the compound Cc1ccc(NC(=O)c2sc3nc4c(cc3c2N)C(=O)CCC4)cc1C ?
15
